system: CD2F1 mice, L1210 leukemia ip, survival T/C; test: NCI In Vivo Anticancer Drug Screen. Data for tumor model L1210 Leukemia (intraperitoneal) in CD2F1 (CDF1) mice; conditions: endpoint: mean survival time; dose: 100.0 mg/kg/injection; schedule: Q04DX003 (ip); vehicle: saline with Tween-80; higher = longer survival
Toxic doses and inconclusive results are not listed.

{"entry_smiles": "O=C(/C=C/c1ccccc1)SCc1ccccc1", "T/C": "96 % of control"}
{"entry_smiles": "CC(C)(C)C(=O)CC(=O)C(C)(C)C.CC(C)(C)C(=O)CC(=O)C(C)(C)C.CC(C)(C)C(=O)CC(=O)C(C)(C)C.[Fe]", "T/C": "100 % of control"}
{"entry_smiles": "Cc1ccc(C(=O)O)s1", "T/C": "91 % of control"}
{"entry_smiles": "CCOC(=O)/C=C/c1ccc2c(c1)OCO2", "T/C": "97 % of control"}
{"entry_smiles": "O/N=C1/CCCc2ccccc21", "T/C": "100 % of control"}
{"entry_smiles": "Cc1oc2ccc(NS(=O)(=O)c3ccccc3)cc2c1C(=O)O", "T/C": "97 % of control"}

Every entry's value here was drawn from PubChem BioAssay AID256.
